# Protocol text: Ratio of drug level in brain to blood in rat FCA model of inflammatory pain at 30 mg/kg, po after 0.25 hrs
# Assay type: ADME, organism-based
# Parameters: dose 30 mg/kg, route oral
# Experimental parameters: brain and blood
Measured quantity: Kp at 0.25 h

>  <Smi>
Cc1ccc(-n2c(C)ccc2-c2cc(Cl)ccc2OCc2ccc(F)cc2)cc1C(=O)O

>  <Observed measurement>
0.4

$$$$

----------
# Protocol text: Bioavailability in rat at 3 mg/kg, po
# Type: ADME, organism-based
# Experimental parameters: in vivo

>  <Smi>
Cc1ccc(-n2c(C)ccc2-c2cc(Cl)ccc2OCc2ccc(F)cc2)cc1C(=O)O

>  <bioavailability, %>
45

$$$$

----------
# Protocol text: Blood clearance in rat
# Type: ADME, organism-based

>  <Smi>
Cc1ccc(-c2cc(Br)ccc2OCc2ccc(F)cc2)n1-c1cccc(C(=O)O)c1

>  <clearance, mL/min/kg>
42

$$$$

----------
# Protocol text: Drug level in blood of rat FCA model of inflammatory pain at 30 mg/kg, po after 2 hrs
# Format: ADME, organism-based
# Design: dose 30 mg/kg, route oral
# Experimental parameters: read-out: Drug uptake
Measured quantity: concentration at 2 h (µM)

>  <Smi>
Cc1ccc(-n2c(C)ccc2-c2cc(Cl)ccc2OCc2ccc(F)cc2)cc1C(=O)O

>  <Measured quantity>
concentration at 2 h

>  <Unit name>
µM

>  <Observed measurement>
5.93

$$$$

----------
# Protocol text: Ratio of drug level in brain to blood in rat FCA model of inflammatory pain at 30 mg/kg, po after 2 hrs
# Format: ADME, organism-based
# Set-up: dose 30 mg/kg, route oral
# Experimental parameters: brain and blood

>  <Smi>
Cc1ccc(-n2c(C)ccc2-c2cc(Cl)ccc2OCc2ccc(F)cc2)cc1C(=O)O

>  <Kp at 2 h>
0.4

$$$$

----------
# Target entity: Prostacyclin receptor (Homo sapiens)
# Sequence (P43119 whole entry): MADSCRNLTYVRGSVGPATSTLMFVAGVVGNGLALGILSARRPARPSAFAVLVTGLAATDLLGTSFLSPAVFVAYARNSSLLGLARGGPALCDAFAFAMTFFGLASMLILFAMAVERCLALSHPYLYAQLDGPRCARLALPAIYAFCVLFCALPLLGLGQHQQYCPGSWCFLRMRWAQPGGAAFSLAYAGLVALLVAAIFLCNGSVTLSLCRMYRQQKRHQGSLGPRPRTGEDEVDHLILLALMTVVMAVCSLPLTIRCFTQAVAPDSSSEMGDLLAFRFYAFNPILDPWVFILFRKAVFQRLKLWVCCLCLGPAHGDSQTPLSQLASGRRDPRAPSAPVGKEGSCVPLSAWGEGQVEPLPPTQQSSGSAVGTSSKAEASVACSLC
# Protocol text: Inhibition of human recombinant IP receptor expressed in CHO cells […] by calcium mobilisation assay
pIC50: −log10 of the molar value.
Measured quantity: pIC50

>  <Smi>
Cc1ccc(-n2c(C)ccc2-c2cc(Cl)ccc2OCc2ccc(F)cc2)cc1C(=O)O

>  <Target entity>
Prostacyclin receptor (Homo sapiens)

>  <Observed measurement>
< 5.50

$$$$

----------
# Target entity: Prostaglandin E2 receptor EP4 subtype (Homo sapiens, UniProt P35408)
# Sequence (P35408 whole entry): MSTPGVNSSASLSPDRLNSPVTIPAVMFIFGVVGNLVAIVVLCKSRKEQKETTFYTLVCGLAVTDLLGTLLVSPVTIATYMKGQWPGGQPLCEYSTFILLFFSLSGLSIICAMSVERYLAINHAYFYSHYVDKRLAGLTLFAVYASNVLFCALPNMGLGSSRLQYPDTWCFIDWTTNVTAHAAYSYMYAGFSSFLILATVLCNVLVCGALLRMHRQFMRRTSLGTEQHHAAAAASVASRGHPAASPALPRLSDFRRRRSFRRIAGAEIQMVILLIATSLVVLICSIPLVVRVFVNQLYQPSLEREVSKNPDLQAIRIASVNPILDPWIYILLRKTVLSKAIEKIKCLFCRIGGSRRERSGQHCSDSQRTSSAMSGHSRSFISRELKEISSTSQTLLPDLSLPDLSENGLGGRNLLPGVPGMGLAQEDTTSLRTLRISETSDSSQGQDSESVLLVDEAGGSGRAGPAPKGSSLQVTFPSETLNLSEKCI
# Protocol text: Binding affinity to human EP4 receptor expressed in CHO cells
# Type: cell-based
pKi: −log10 of the molar value.

>  <Smi>
Cc1ccc(-n2c(C)ccc2-c2cc(Cl)ccc2OCc2ccc(F)cc2)cc1C(=O)O

>  <pKi>
5.10

$$$$

----------
# Protocol text: Ratio of drug level in brain to blood in rat FCA model of inflammatory pain at 30 mg/kg, po after 6 hrs
# Type: ADME, organism-based
# Parameters: dose 30 mg/kg, route oral
# Experimental parameters: brain and blood
Measured quantity: Kp at 6 h

>  <Smi>
Cc1ccc(-n2c(C)ccc2-c2cc(Cl)ccc2OCc2ccc(F)cc2)cc1C(=O)O

>  <Observed measurement>
0.4

$$$$

----------
# Target entity: Prostaglandin E2 receptor EP3 subtype (Homo sapiens, UniProt P43115)
# Sequence (P43115 whole entry): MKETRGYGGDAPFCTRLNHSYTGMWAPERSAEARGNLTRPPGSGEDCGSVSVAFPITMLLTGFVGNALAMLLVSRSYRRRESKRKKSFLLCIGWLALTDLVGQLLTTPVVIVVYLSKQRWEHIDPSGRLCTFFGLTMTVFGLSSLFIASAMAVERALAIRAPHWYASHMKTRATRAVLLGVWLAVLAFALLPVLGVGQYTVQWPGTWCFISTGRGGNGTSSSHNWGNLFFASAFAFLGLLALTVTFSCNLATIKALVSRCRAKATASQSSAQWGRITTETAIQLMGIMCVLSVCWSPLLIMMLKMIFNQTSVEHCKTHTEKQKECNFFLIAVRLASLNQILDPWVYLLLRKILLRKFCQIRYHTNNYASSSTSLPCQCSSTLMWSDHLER
# Protocol text: Inhibition of human recombinant EP3 receptor expressed in CHO cells by calcium mobilisation assay

>  <Smi>
Cc1ccc(-n2c(C)ccc2-c2cc(Cl)ccc2OCc2ccc(F)cc2)cc1C(=O)O

>  <Ki, nM>
501

$$$$

----------
# Protocol text: Drug level in blood of rat FCA model of inflammatory pain at 30 mg/kg, po after 0.25 hrs
# Type: ADME, organism-based
# Set-up: dose 30 mg/kg, route oral
# Experimental parameters: read-out: Drug uptake

>  <Smi>
Cc1ccc(-n2c(C)ccc2-c2cc(Cl)ccc2OCc2ccc(F)cc2)cc1C(=O)O

>  <concentration at 0.25 h / µM>
7.36

$$$$

----------
# Target entity: Prostaglandin E2 receptor EP4 subtype (Homo sapiens)
# Protocol text: Binding affinity to human EP4 receptor expressed in CHO cells
pIC50: −log10 of the molar value.

>  <Smi>
Cc1ccc(-n2c(C)ccc2-c2cc(Cl)ccc2OCc2ccc(F)cc2)cc1C(=O)O

>  <Target entity>
Prostaglandin E2 receptor EP4 subtype (Homo sapiens)

>  <pIC50>
4.80

$$$$

----------
# Protocol text: Drug level in blood of rat FCA model of inflammatory pain at 30 mg/kg, po after 6 hrs
# Type: ADME, organism-based
# Set-up: dose 30 mg/kg, route oral
# Experimental parameters: read-out: Drug uptake

>  <Smi>
Cc1ccc(-n2c(C)ccc2-c2cc(Cl)ccc2OCc2ccc(F)cc2)cc1C(=O)O

>  <Unit name>
nM

>  <concentration at 6 h>
2310

$$$$

----------
# Protocol text: Drug level in blood of rat FCA model of inflammatory pain at 30 mg/kg, po after 4 hrs
# Type: ADME, organism-based
# Parameters: dose 30 mg/kg, route oral
# Experimental parameters: read-out: Drug uptake

>  <Smi>
Cc1ccc(-n2c(C)ccc2-c2cc(Cl)ccc2OCc2ccc(F)cc2)cc1C(=O)O

>  <concentration at 4 h, µM>
3.56

$$$$

----------
# Protocol text: Ratio of drug level in brain to blood in rat FCA model of inflammatory pain at 30 mg/kg, po after 24 hrs
# Assay type: ADME, organism-based
# Design: dose 30 mg/kg, route oral
# Experimental parameters: brain and blood

>  <Smi>
Cc1ccc(-n2c(C)ccc2-c2cc(Cl)ccc2OCc2ccc(F)cc2)cc1C(=O)O

>  <Kp at 24 h>
0.5

$$$$

----------
# Target entity: Thromboxane A2 receptor (Homo sapiens, UniProt P21731)
# Sequence (P21731 whole entry): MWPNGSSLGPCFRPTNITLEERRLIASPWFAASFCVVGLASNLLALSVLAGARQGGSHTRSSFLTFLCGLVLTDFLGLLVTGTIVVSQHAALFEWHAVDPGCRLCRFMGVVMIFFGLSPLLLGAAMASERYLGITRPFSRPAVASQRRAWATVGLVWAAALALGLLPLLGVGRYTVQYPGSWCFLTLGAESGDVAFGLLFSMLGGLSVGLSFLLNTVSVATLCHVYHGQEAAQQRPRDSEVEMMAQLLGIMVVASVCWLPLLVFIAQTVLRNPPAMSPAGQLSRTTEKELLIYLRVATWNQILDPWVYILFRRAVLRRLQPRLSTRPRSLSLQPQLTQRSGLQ
# Protocol text: Inhibition of human recombinant TP receptor expressed in CHO cells by calcium mobilisation assay

>  <Smi>
Cc1ccc(-n2c(C)ccc2-c2cc(Cl)ccc2OCc2ccc(F)cc2)cc1C(=O)O

>  <Ki, nM>
15.8

$$$$

----------
# Target entity: Prostaglandin E2 receptor EP1 subtype (Homo sapiens, UniProt P34995)
# Sequence (P34995 whole entry): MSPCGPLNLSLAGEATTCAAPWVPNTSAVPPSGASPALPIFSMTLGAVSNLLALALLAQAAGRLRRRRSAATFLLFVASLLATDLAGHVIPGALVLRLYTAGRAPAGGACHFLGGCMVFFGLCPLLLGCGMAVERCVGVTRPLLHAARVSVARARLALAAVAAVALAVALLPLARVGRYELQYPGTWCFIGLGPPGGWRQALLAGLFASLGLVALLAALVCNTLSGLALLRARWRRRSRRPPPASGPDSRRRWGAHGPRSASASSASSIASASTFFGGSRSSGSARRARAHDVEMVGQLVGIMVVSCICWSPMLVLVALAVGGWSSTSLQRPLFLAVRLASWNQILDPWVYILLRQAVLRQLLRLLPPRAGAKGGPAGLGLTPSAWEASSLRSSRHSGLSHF
# Protocol text: Inhibition of human recombinant EP1 receptor expressed in CHO cells by calcium mobilisation assay

>  <Smi>
Cc1ccc(-n2c(C)ccc2-c2cc(Cl)ccc2OCc2ccc(F)cc2)cc1C(=O)O

>  <Target entity>
Prostaglandin E2 receptor EP1 subtype (Homo sapiens, UniProt P34995)

>  <Unit name>
nM

>  <Ki>
1

$$$$

----------
# Protocol text: Drug level in brain of rat FCA model of inflammatory pain at 30 mg/kg, po after 2 hrs
# Type: ADME, organism-based
# Parameters: dose 30 mg/kg, route oral
# Experimental parameters: read-out: Drug uptake

>  <Smi>
Cc1ccc(-n2c(C)ccc2-c2cc(Cl)ccc2OCc2ccc(F)cc2)cc1C(=O)O

>  <Unit name>
nM

>  <concentration at 2 h>
2480

$$$$

----------
# Protocol text: Drug level in brain of rat FCA model of inflammatory pain at 30 mg/kg, po after 4 hrs
# Format: ADME, organism-based
# Set-up: dose 30 mg/kg, route oral
# Experimental parameters: read-out: Drug uptake

>  <Smi>
Cc1ccc(-n2c(C)ccc2-c2cc(Cl)ccc2OCc2ccc(F)cc2)cc1C(=O)O

>  <concentration at 4 h (nM)>
1220

$$$$

----------
# Target entity: Prostaglandin E2 receptor EP1 subtype (Homo sapiens)
# Protocol text: Displacement of [3H]PGE2 from human recombinant EP1 receptor expressed in CHOK1 cell membrane
Measured quantity: IC50 (nM)

>  <Smi>
Cc1ccc(-n2c(C)ccc2-c2cc(Cl)ccc2OCc2ccc(F)cc2F)cc1C(=O)O

>  <Measured quantity>
IC50

>  <Observed measurement>
2.51

$$$$
>  <Smi>
Cc1ccc(-c2cc(C(F)(F)F)ccc2OCc2ccccc2)n1-c1ccc(F)c(C(=O)O)c1

>  <Measured quantity>
IC50

>  <Observed measurement>
2

$$$$
>  <Smi>
COc1ccc(-n2c(C)ccc2-c2cc(Br)ccc2OCc2ccc(F)cc2F)cc1C(=O)O

>  <Measured quantity>
IC50

>  <Observed measurement>
0.398

$$$$
>  <Smi>
Cc1ccc(-c2cc(F)ccc2OCc2ccc(F)cc2)n1-c1cc(C(=O)O)c2ccccc2c1

>  <Measured quantity>
IC50

>  <Observed measurement>
25.1

$$$$
>  <Smi>
CC(=O)Nc1ccc(-n2c(C)ccc2-c2cc(Br)ccc2OCc2ccc(F)cc2F)cc1C(=O)O

>  <Measured quantity>
IC50

>  <Observed measurement>
0.398

$$$$
>  <Smi>
Cc1ccc(OCc2ccc(F)cc2)c(-c2ccc(C)n2-c2cc(C(=O)O)c3ccccc3c2)c1

>  <Measured quantity>
IC50

>  <Observed measurement>
79.4

$$$$
>  <Smi>
Cc1ccc(-c2cc(C(F)(F)F)ccc2OCc2ccc(F)cc2)n1-c1ccc(F)c(C(=O)O)c1

>  <Measured quantity>
IC50

>  <Observed measurement>
7.94

$$$$
>  <Smi>
Cc1ccc(OCc2ccc(F)cc2)c(-c2ccc(C)n2-c2ccc(F)c(C(=O)O)c2)c1

>  <Measured quantity>
IC50

>  <Observed measurement>
15.8

$$$$
>  <Smi>
Cc1ccc(-c2cc(F)ccc2OCc2ccc(F)cc2)n1-c1ccc(F)c(C(=O)O)c1

>  <Measured quantity>
IC50

>  <Observed measurement>
12.6

$$$$
>  <Smi>
Cc1ccc(-c2cc(Br)ccc2OCc2ccc(F)cc2)n1-c1ccc(F)c(C(=O)O)c1

>  <Measured quantity>
IC50

>  <Observed measurement>
1.26

$$$$
>  <Smi>
Cc1c(N)cc(-n2c(C)ccc2-c2cc(C(F)(F)F)ccc2OCc2ccccc2)cc1C(=O)O

>  <Measured quantity>
IC50

>  <Observed measurement>
3.98

$$$$
>  <Smi>
Cc1ccc(-c2cc(Br)ccc2OCc2ccc(F)cc2)n1-c1ccc(Cl)c(C(=O)O)c1

>  <Measured quantity>
IC50

>  <Observed measurement>
2.51

$$$$
>  <Smi>
Cc1c(N)cc(-n2c(C)ccc2-c2cc(Cl)ccc2OCc2ccccc2)cc1C(=O)O

>  <Measured quantity>
IC50

>  <Observed measurement>
2

$$$$
>  <Smi>
Cc1c(N)cc(-n2c(C)ccc2-c2cc(C(F)(F)F)ccc2OCc2ccc(F)cc2)cc1C(=O)O

>  <Measured quantity>
IC50

>  <Observed measurement>
3.98

$$$$
>  <Smi>
Cc1c(N)cc(-n2c(C)ccc2-c2cc(Br)ccc2OCc2ccc(F)cc2)cc1C(=O)O

>  <Measured quantity>
IC50

>  <Observed measurement>
0.794

$$$$
>  <Smi>
Cc1ccc(-c2cc(Br)ccc2OCc2ccc(F)cc2F)n1-c1ccc(O)c(C(=O)O)c1

>  <Measured quantity>
IC50

>  <Observed measurement>
2

$$$$
>  <Smi>
Cc1ccc(OCc2ccc(F)cc2)c(-c2ccc(C)n2-c2cc(N)c(C)c(C(=O)O)c2)c1

>  <Measured quantity>
IC50

>  <Observed measurement>
15.8

$$$$
>  <Smi>
Cc1ccc(-n2c(C)ccc2-c2cc(Cl)ccc2OCc2ccc(F)cc2)cc1C(=O)O

>  <Measured quantity>
IC50

>  <Observed measurement>
5.01

$$$$
>  <Smi>
Cc1ccc(-c2cc(Cl)ccc2OCc2ccccc2)n1-c1cc(C(=O)O)c2cc[nH]c2c1

>  <Measured quantity>
IC50

>  <Observed measurement>
1.26

$$$$
>  <Smi>
Cc1ccc(-n2c(C)ccc2-c2cc(Br)ccc2OCc2ccc(F)cc2F)cc1C(=O)O

>  <Measured quantity>
IC50

>  <Observed measurement>
1.26

$$$$
>  <Smi>
Cc1ccc(-c2cc(Br)ccc2OCc2ccccc2)n1-c1cc(C(=O)O)c2ccccc2c1

>  <Measured quantity>
IC50

>  <Observed measurement>
12.6

$$$$
>  <Smi>
Cc1ccc(-c2cc(Cl)ccc2OCc2ccccc2)n1-c1cc(C(=O)O)c2ccccc2c1

>  <Measured quantity>
IC50

>  <Observed measurement>
6.31

$$$$
>  <Smi>
Cc1ccc(-c2cc(Br)ccc2OCc2ccc(F)cc2F)n1-c1ccc(OC(F)F)c(C(=O)O)c1

>  <Measured quantity>
IC50

>  <Observed measurement>
0.631

$$$$
>  <Smi>
Cc1ccc(-c2cc(Br)ccc2OCc2ccc(F)cc2)n1-c1cc(C(=O)O)c2ccccc2c1

>  <Measured quantity>
IC50

>  <Observed measurement>
5.01

$$$$
>  <Smi>
Cc1c(N)cc(-n2c(C)ccc2-c2cc(Br)ccc2OCc2ccccc2)cc1C(=O)O

>  <Measured quantity>
IC50

>  <Observed measurement>
3.16

$$$$
>  <Smi>
Cc1ccc(-c2cc(Br)ccc2OCc2ccc(F)cc2F)n1-c1cc(C(=O)O)c2ccccc2c1

>  <Measured quantity>
IC50

>  <Observed measurement>
2.51

$$$$
>  <Smi>
Cc1ccc(-c2cc(Br)ccc2OCc2ccccc2)n1-c1ccc(OC(F)F)c(C(=O)O)c1

>  <Measured quantity>
IC50

>  <Observed measurement>
5.01

$$$$
>  <Smi>
Cc1ccc(-c2cc(Br)ccc2OCc2ccc(F)cc2)n1-c1ccc(OC(F)F)c(C(=O)O)c1

>  <Measured quantity>
IC50

>  <Observed measurement>
2

$$$$
